Measured pKi accompanies every entry in the list below.
- measurement_target: UniProt P22681
- Sequence (P22681 358-457): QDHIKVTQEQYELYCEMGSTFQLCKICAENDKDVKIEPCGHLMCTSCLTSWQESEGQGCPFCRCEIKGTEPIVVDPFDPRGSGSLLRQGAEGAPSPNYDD
Where a SMILES comes first, the peptide text is derived from it. [ ]: non-standard residue; d: D form. Cha = N[C@@H](CC1CCCCC1)C(=O)O
Answer as the number alone; pKi is minus log10 of concentration in mol/L.

Indicate the recorded pKi value for this compound: CC(=O)N1CCC[C@H]1C(=O)N[C@@H](CC1CCCCC1)C(=O)N[C@@H](CCCCN)C(=O)N1CCC[C@H]1C(=O)N1CCC[C@H]1C(N)=O [Peptide 5, Ac-P(c)KPP-NH2] (Ac-P[Cha]KPP-NH2)
3.90

* * *

- measurement_target: Cbl (RING) protein (Homo sapiens, UniProt P22681)
- Sequence (P22681 358-457): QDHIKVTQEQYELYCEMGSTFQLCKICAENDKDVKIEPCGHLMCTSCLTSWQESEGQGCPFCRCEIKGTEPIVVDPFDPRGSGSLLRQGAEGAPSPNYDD
Where a SMILES comes first, the peptide text is derived from it. [ ]: non-standard residue; d: D form. Pro(trans-4-F) = O=C(O)[C@@H]1C[C@@H](F)CN1; Phe(3-Me) = Cc1cccc(C[C@H](N)C(=O)O)c1
Listing of recorded pKi by entry.
Interpret pKi as the negative base-10 log of the concentration measured in mol/L.

- compound: "CC(=O)N[C@@H](CCCCN)C(=O)N1C[C@H](F)C[C@H]1C(=O)N[C@@H](C)C(=O)N[C@@H](C)C(=O)N[C@@H](CCCCN)C(N)=O [Peptide 57, Ac-K(t)AAK-NH2] (Ac-K[Pro(trans-4-F)]AAK-NH2)"
  measurement_target: "Cbl (RING) protein (Homo sapiens, UniProt P22681)"
  pKi: 3.75

Then there is this compound:
Name the recorded pKi of the item CC(=O)N1CCC[C@H]1C(=O)N[C@@H](Cc1cccc(C)c1)C(=O)N[C@@H](CCCCN)C(=O)N1CCC[C@H]1C(=O)N1CCC[C@H]1C(N)=O [Peptide 7, Ac-P(e)KPP-NH2] (Ac-P[Phe(3-Me)]KPP-NH2) in your answer.
5.35

* * *

Attribute: pKi
- measurement_target: Cbl (RING) protein (Homo sapiens, UniProt P22681)
- Sequence (P22681 358-457): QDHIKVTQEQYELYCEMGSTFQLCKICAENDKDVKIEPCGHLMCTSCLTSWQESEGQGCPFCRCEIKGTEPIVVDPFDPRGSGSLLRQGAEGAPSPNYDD
*1 amine or outer side, *2 acyl side, *3 side chain or, on linkers, in order; H or OH if unused. Where a SMILES comes first, the peptide text is derived from it. [ ]: non-standard residue; d: D form. X2 = CC(=O)CN(CCCC[C@H](N[*:1])C(=O)[*:2])C(C)=O; Pro(trans-4-F) = O=C(O)[C@@H]1C[C@@H](F)CN1; X1 = CC(=O)N(O)CCCC[C@H](N[*:1])C(=O)[*:2]; Phe(3-F) = N[C@@H](Cc1cccc(F)c1)C(=O)O; Pip = O=C(O)[C@@H]1CCCCN1; Thz = O=C(O)[C@@H]1CSCN1; Aze = O=C(O)[C@@H]1CCN1
In simple prose, pKi is minus the logarithm base ten of a concentration in moles per litre.

// worked examples, pKi included
- molecule: "CC(=O)N[C@@H](CCCCN)C(=O)N1CC[C@H]1C(=O)N[C@@H](C)C(=O)N[C@H](C(=O)N[C@@H](CCCCN)C(N)=O)[C@@H](C)O [Peptide 48, Ac-K(q)ATK-NH2] (Ac-K[Aze]ATK-NH2)"
  recorded_value: 4.22
- molecule: "CC(=O)N1CCC[C@H]1C(=O)N[C@@H](Cc1cccc(F)c1)C(=O)N[C@@H](CCCCN)C(=O)N1CCC[C@H]1C(=O)N1C[C@H](F)C[C@H]1C(N)=O [Peptide 22, Ac-P(h)KP(t)-NH2] (Ac-P[Phe(3-F)]KP[Pro(trans-4-F)]-NH2)"
  recorded_value: 4.51

Annotate the molecule CC(=O)N1CCC[C@H]1C(=O)N[C@@H](Cc1cccc(F)c1)C(=O)N[C@@H](CCCCN)C(=O)N1CCC[C@H]1C(=O)N1CSC[C@H]1C(N)=O [Peptide 20, Ac-P(h)KP(r)-NH2] (Ac-P[Phe(3-F)]KP[Thz]-NH2) with its measured pKi.
5.43

Give a short answer stating reported pKi for CC(=O)N1CCC[C@H]1C(=O)N[C@@H](Cc1cccc(F)c1)C(=O)N[C@@H](CCCCN)C(=O)N1CCCC[C@H]1C(=O)N1CCC[C@H]1C(N)=O [Peptide 28, Ac-P(h)K(s)P-NH2] (Ac-P[Phe(3-F)]K[Pip]P-NH2) .
3.87

Please report the measured pKi for CC(=O)CN(CCCC[C@H](NC(=O)[C@H](Cc1cccc(F)c1)NC(=O)[C@@H]1CSCN1C(C)=O)C(=O)N1CCC[C@H]1C(=O)N1CCC[C@H]1C(N)=O)C(C)=O [Peptide 39, Ac-(r) (h) (w)PP-NH2] (Ac-[Thz][Phe(3-F)][X2]PP-NH2)
4.55

Answer with reported pKi of CC(=O)N(O)CCCC[C@H](NC(=O)[C@H](Cc1cccc(F)c1)NC(=O)[C@@H]1CSCN1C(C)=O)C(=O)N1CCC[C@H]1C(=O)N1CCC[C@H]1C(N)=O [Peptide 38, Ac-(r) (h) (v)PP-NH2] (Ac-[Thz][Phe(3-F)][X1]PP-NH2)
4.67

Provide pKi value for the following molecule: CC(=O)N1CCC[C@H]1C(=O)N[C@@H](Cc1cccc(F)c1)C(=O)N[C@@H](CCCCN)C(=O)N1CCC[C@H]1C(=O)N1CCC[C@H]1C(N)=O [Peptide 10, Ac-P(h)KPP-NH2] (Ac-P[Phe(3-F)]KPP-NH2)
5.74

* * *

- Tested on: mice fed a high-fat diet
- assay_comment: Indirect energy expenditure and physical activity measurement
- Assay type: in vivo
- condition_context: after 12 weeks daily i.p. 5 mg/kg on high-fat diet; vehicle 4.15 ± 0.55
- Description: All experiments were approved by the institutional Animal Care and Use Committee (Chengdu Medical College, China). All experiments were carried out in 10-week-old male mice maintained on the C57BL/6 background. All the animals were kept on a 12-h light/dark cycle with free access to food and water. Animals (n = 90) were randomly assigned to one of the nine groups (Table 1). […] Food intake was measured manually on a daily basis. […]
Where a SMILES comes first, the peptide text is derived from it. [ ]: non-standard residue; d: D form. Pro(trans-4-F) = O=C(O)[C@@H]1C[C@@H](F)CN1; Phe(3-F) = N[C@@H](Cc1cccc(F)c1)C(=O)O; Thz = O=C(O)[C@@H]1CSCN1
measured_quantity: Oxygen consumption VO2 (mL/g/h)
All answers are understood in mL/g/h, so give the number only.

- molecule: "CC(=O)N[C@@H](CCCCN)C(=O)N1CSC[C@H]1C(=O)N[C@@H](C)C(=O)N[C@H](C(=O)N[C@@H](CCCCN)C(N)=O)[C@@H](C)O [Peptide 49, Ac-K(r)ATK-NH2] (Ac-K[Thz]ATK-NH2)"
  measurement_target: "mice fed a high-fat diet"
  Oxygen consumption VO2 / mL/g/h: 6.12
- molecule: "CC(=O)N[C@@H](CCCCN)C(=O)N1C[C@H](F)C[C@H]1C(=O)N[C@@H](C)C(=O)N[C@@H](CC(C)C)C(=O)N[C@@H](CCCCN)C(N)=O [Peptide 60, Ac-K(t)ALK-NH2] (Ac-K[Pro(trans-4-F)]ALK-NH2)"
  measurement_target: "mice fed a high-fat diet"
  Oxygen consumption VO2 / mL/g/h: 4.16
- molecule: "CC(=O)N[C@@H](CCCCN)C(=O)N1C[C@H](F)C[C@H]1C(=O)N[C@@H](C)C(=O)N[C@H](C(=O)N[C@@H](CCCCN)C(N)=O)[C@@H](C)O [Peptide 51, Ac-K(t)ATK-NH2] (Ac-K[Pro(trans-4-F)]ATK-NH2)"
  measurement_target: "mice fed a high-fat diet"
  Oxygen consumption VO2 / mL/g/h: 5.99

Tell me Oxygen consumption VO2 reported for CC(=O)N1CCC[C@H]1C(=O)N[C@@H](Cc1cccc(F)c1)C(=O)N[C@@H](CCCCN)C(=O)N1CCC[C@H]1C(=O)N1CCC[C@H]1C(N)=O [Peptide 10, Ac-P(h)KPP-NH2] (Ac-P[Phe(3-F)]KPP-NH2)
5.92

* * *

- measurement_target: Cbl (RING) protein (Homo sapiens, UniProt P22681)
- Sequence (P22681 358-457): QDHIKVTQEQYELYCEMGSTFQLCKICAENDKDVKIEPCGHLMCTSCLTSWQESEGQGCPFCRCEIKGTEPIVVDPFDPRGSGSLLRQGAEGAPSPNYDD
Where a SMILES comes first, the peptide text is derived from it. [ ]: non-standard residue; d: D form. Phe(4-F) = N[C@@H](Cc1ccc(F)cc1)C(=O)O
measured_quantity: Ki (nM)
Reply numerically in nM, unit not repeated.

In one line, give reported Ki of the entry CC(=O)N1CCC[C@H]1C(=O)N[C@@H](Cc1ccc(F)cc1)C(=O)N[C@@H](CCCCN)C(=O)N1CCC[C@H]1C(=O)N1CCC[C@H]1C(N)=O [Peptide 11, Ac-P(i)KPP-NH2] (Ac-P[Phe(4-F)]KPP-NH2) .
2400
